method.description: Therapeutic index, ratio of TC50 for human CEM-SS cells to EC50 for HIV1 RF infected in human CEM-SS cells
Format: cell-based
test.context: read-out: TI
endpoint: selectivity ratio

compound=Cc1cc(C)cc(C(=O)c2c(C(C)C)c(=O)[nH]c(=O)n2CC2CCCCC2)c1 readout_number=8550
compound=Cc1cc(C)cc(Sc2c(C(C)C)c(=O)[nH]c(=O)n2Cc2ccccc2)c1 readout_number=165000
compound=Cc1cc(C)cc(C(=O)c2c(C(C)C)c(=O)[nH]c(=O)n2CCC2CCCC2)c1 readout_number=1180
compound=Cc1cc(C)cc(C(=O)c2c(C(C)C)c(=O)[nH]c(=O)n2CC2CC2)c1 readout_number=2.55e+06
compound=Cc1cc(C)cc(Oc2c(C(C)C)c(=O)[nH]c(=O)n2CCC2=CCCC2)c1 readout_number=90
compound=CCc1c(Oc2cc(C)cc(C)c2)n(CCC2CCCC2)c(=O)[nH]c1=O readout_number=57
compound=CCc1c(Sc2cc(C)cc(C)c2)n(Cc2ccccc2)c(=O)[nH]c1=O readout_number=598000
compound=CCc1c(C(=O)c2cc(C)cc(C)c2)n(CC2CCC2)c(=O)[nH]c1=O readout_number=60700
compound=CCc1c(Oc2cc(C)cc(C)c2)n(CC2CCCCC2)c(=O)[nH]c1=O readout_number=5140
compound=CCc1c(Oc2cc(C)cc(C)c2)n(CC2=CCCC2)c(=O)[nH]c1=O readout_number=4080
compound=Cc1cc(C)cc(Sc2c(C(C)C)c(=O)[nH]c(=O)n2CCC2=CCCC2)c1 readout_number=26
compound=Cc1cc(C)cc(C(=O)c2c(C(C)C)c(=O)[nH]c(=O)n2CCC2CC=CC2)c1 readout_number=2390
compound="Cc1cc(C)cc(Oc2c(C(C)C)c(=O)[nH]c(=O)n2CCC2C=CCC2)c1 (centres undefined)" readout_number=3560
compound=CCc1c(Sc2cc(C)cc(C)c2)n(CC2CCCCC2)c(=O)[nH]c1=O readout_number=534
compound=CCc1c(Oc2cc(C)cc(C)c2)n(CCC2=CCCC2)c(=O)[nH]c1=O readout_number=2600
compound="CCc1c(Oc2cc(C)cc(C)c2)n(CCC2C=CCC2)c(=O)[nH]c1=O (centres undefined)" readout_number=570000
compound=Cc1cc(C)cc(Sc2c(C(C)C)c(=O)[nH]c(=O)n2CC2CCCCC2)c1 readout_number=1560
compound="Cc1cc(C)cc(Sc2c(C(C)C)c(=O)[nH]c(=O)n2CCC2C=CCC2)c1 (centres undefined)" readout_number=1850
compound=Cc1cc(C)cc(C(=O)c2c(C)c(=O)[nH]c(=O)n2CC2CC=CC2)c1 readout_number=14
compound=CCc1c(C(=O)c2cc(C)cc(C)c2)n(CC2CC2)c(=O)[nH]c1=O readout_number=125000
compound=Cc1cc(C)cc(Oc2c(C(C)C)c(=O)[nH]c(=O)n2CC2CC2)c1 readout_number=15500
compound=Cc1cc(C)cc(Oc2c(C(C)C)c(=O)[nH]c(=O)n2CCC2CC=CC2)c1 readout_number=918
compound=CCc1c(Oc2ccccc2)n(CC2CC=CC2)c(=O)[nH]c1=O readout_number=127
compound=Cc1cc(C)cc(Sc2c(C(C)C)c(=O)[nH]c(=O)n2CCC2CCCC2)c1 readout_number=92
compound=Cc1cc(C)cc(Oc2c(C(C)C)c(=O)[nH]c(=O)n2CC2CCCC2)c1 readout_number=1050
compound="CCc1c(C(=O)c2cc(C)cc(C)c2)n(CCC2C=CCC2)c(=O)[nH]c1=O (centres undefined)" readout_number=1680
compound=Cc1cc(C)cc(C(=O)c2c(C(C)C)c(=O)[nH]c(=O)n2Cc2ccccc2)c1 readout_number=840
compound=CCc1c(C(=O)c2ccccc2)n(CC2CC=CC2)c(=O)[nH]c1=O readout_number=1440
compound=Cc1cc(C)cc(Oc2c(C(C)C)c(=O)[nH]c(=O)n2CC2CC=CC2)c1 readout_number=12900
compound=CCc1c(C(=O)c2cc(C)cc(C)c2)n(CC2CCCC2)c(=O)[nH]c1=O readout_number=74700
compound=CCc1c(Sc2cc(C)cc(C)c2)n(CC2CCC2)c(=O)[nH]c1=O readout_number=80800
compound=CC(C)c1c(Sc2ccccc2)n(CC2CC=CC2)c(=O)[nH]c1=O readout_number=1300
compound=CCc1c(C(=O)c2cc(C)cc(C)c2)n(CC2CCCCC2)c(=O)[nH]c1=O readout_number=20300
compound=CCc1c(C(=O)c2cc(C)cc(C)c2)n(Cc2ccccc2)c(=O)[nH]c1=O readout_number=68300

----------
# selectivity ratio per record follows
method.description: Therapeutic index, ratio of TC50 for human CEM-SS cells to EC50 for HIV2 ROD infected in human CEM-SS cells
Assay type: cell-based
test.context: CEM-SS cells, read-out: TI
endpoint: selectivity ratio

compound=Cc1cc(C)cc(Sc2c(C(C)C)c(=O)[nH]c(=O)n2CC2CC=CC2)c1 result="> 1.3"
compound=CCc1c(Oc2cc(C)cc(C)c2)n(CC2CC=CC2)c(=O)[nH]c1=O result="> 3.2"
compound="CCc1c(Sc2cc(C)cc(C)c2)n(CCC2C=CCC2)c(=O)[nH]c1=O (stereo not drawn)" result=10

----------
tested.on: Human immunodeficiency virus type 1 reverse transcriptase (Human immunodeficiency virus 1, UniProt Q72547)
method.description: Inhibition of wild type HIV1 reverse transcriptase assessed as 32P-labeled GMP incorporation into nascent DNA strand
pIC50: −log10 of the molar value.
endpoint: pIC50

entry_smiles=Cc1cc(C)cc(Oc2c(C(C)C)c(=O)[nH]c(=O)n2CC2CCCC2)c1 endpoint=pIC50 readout_number=6.80
entry_smiles=Cc1cc(C)cc(Sc2c(C(C)C)c(=O)[nH]c(=O)n2CCC2CCCC2)c1 endpoint=pIC50 readout_number=6.63
entry_smiles=Cc1cc(C)cc(C(=O)c2c(C(C)C)c(=O)[nH]c(=O)n2CC2CC=CC2)c1 endpoint=pIC50 readout_number=6.19
entry_smiles=CC(C)c1c(Sc2ccccc2)n(CC2CC=CC2)c(=O)[nH]c1=O endpoint=pIC50 readout_number=6.61

----------
method.description: Cytotoxicity against human HeLa cells expressing CD4-LTR by XTT assay
Type: cell-based
test.context: read-out: TC50 (the source's name)
# CC50 per record follows
endpoint: CC50 (µM)

entry_smiles=Cc1cc(C)cc(C(=O)c2c(C(C)C)c(=O)[nH]c(=O)n2CCC2=CCCC2)c1 endpoint=CC50 readout_number=29.4
entry_smiles=Cc1cc(C)cc(C(=O)c2c(C(C)C)c(=O)[nH]c(=O)n2CC2CCCCC2)c1 endpoint=CC50 readout_number=30.4
entry_smiles=CCc1c(Oc2cc(C)cc(C)c2)n(CCC2CCCC2)c(=O)[nH]c1=O endpoint=CC50 readout_number=55.9
entry_smiles=Cc1cc(C)cc(Sc2c(C(C)C)c(=O)[nH]c(=O)n2Cc2ccccc2)c1 endpoint=CC50 readout_number=192
entry_smiles=CCc1c(Oc2cc(C)cc(C)c2)n(CC2CCCCC2)c(=O)[nH]c1=O endpoint=CC50 readout_number=129
entry_smiles=CCc1c(Oc2cc(C)cc(C)c2)n(CC2CCC2)c(=O)[nH]c1=O endpoint=CC50 readout_number=1200
entry_smiles=CCc1c(C(=O)c2cc(C)cc(C)c2)n(CCC2=CCCC2)c(=O)[nH]c1=O endpoint=CC50 readout_number=1100
entry_smiles=CCc1c(Sc2ccccc2)n(CC2CC=CC2)c(=O)[nH]c1=O endpoint=CC50 readout_number=30.3
entry_smiles=CC(C)c1c(Sc2ccccc2)n(CC2CC=CC2)c(=O)[nH]c1=O endpoint=CC50 readout_number=25.9
entry_smiles=CCc1c(C(=O)c2cc(C)cc(C)c2)n(CC2CCC2)c(=O)[nH]c1=O endpoint=CC50 readout_number=850
entry_smiles=Cc1cc(C)cc(Sc2c(C(C)C)c(=O)[nH]c(=O)n2CC2CCCCC2)c1 endpoint=CC50 readout_number=15.2

----------
method.description: Cytotoxicity against human HeLa cells expressing CD4-LTR by XTT assay
Format: cell-based
test.context: read-out: TC50 (the source's name)
// assign satisfied if CC50 falls strictly below 20 µM, else not satisfied (ties count as not satisfied)

compound="CCc1c(Oc2cc(C)cc(C)c2)n(CCC2C=CCC2)c(=O)[nH]c1=O (stereo not drawn)" label_class="not satisfied"
compound="Cc1cc(C)cc(C(=O)c2c(C(C)C)c(=O)[nH]c(=O)n2CCC2C=CCC2)c1 (stereo not drawn)" label_class=satisfied
compound=CCc1c(Sc2cc(C)cc(C)c2)n(CC2=CCCC2)c(=O)[nH]c1=O label_class="not satisfied"
compound=CCc1c(Oc2cc(C)cc(C)c2)n(CC2CC=CC2)c(=O)[nH]c1=O label_class="not satisfied"
compound=CCc1c(Sc2cc(C)cc(C)c2)n(CCC2=CCCC2)c(=O)[nH]c1=O label_class="not satisfied"
compound=Cc1cc(C)cc(Sc2c(C(C)C)c(=O)[nH]c(=O)n2CC2CCC2)c1 label_class=satisfied
compound=Cc1cc(C)cc(C(=O)c2c(C(C)C)c(=O)[nH]c(=O)n2CC2CC2)c1 label_class="not satisfied"
compound=CCc1c(Sc2cc(C)cc(C)c2)n(CCC2CC=CC2)c(=O)[nH]c1=O label_class="not satisfied"
compound=Cc1cc(C)cc(Sc2c(C(C)C)c(=O)[nH]c(=O)n2CC2CC2)c1 label_class=satisfied
compound=CCc1c(C(=O)c2cc(C)cc(C)c2)n(CCC2CCCC2)c(=O)[nH]c1=O label_class="not satisfied"
compound=CCc1c(C(=O)c2cc(C)cc(C)c2)n(Cc2ccccc2)c(=O)[nH]c1=O label_class="not satisfied"
compound=CCc1c(C(=O)c2cc(C)cc(C)c2)n(CC2=CCCC2)c(=O)[nH]c1=O label_class="not satisfied"
